test system: A549; experiment: Cytotoxicity against human A549 cells assessed as growth inhibition after 48 hrs by MTT assay; assay type: functional, cell-based; conditions: A549, 48 h
QUANTITY_KIND: IC50 (µM)
Field: numeric (µM). Do not append units.

- CCc1n(C(c2ccccc2)c2cc3ccccc3o2)cc[n+]1CC(=O)c1ccccc1 (stereo not drawn): 13.7

Alright, here's another compound for you.
Tested on A549, the item CCc1n(C(c2ccccc2)c2cc3ccccc3o2)cc[n+]1Cc1ccccc1 (stereo not drawn) showed IC50 equal to 6.52

----------
# pIC50 per entry
system: HL-60; assay: Cytotoxicity against human HL60 cells assessed as growth inhibition after 48 hrs by MTT assay; type: functional, cell-based; settings: HL-60, 48 h
Value format note: pIC50 is -log10 of concentration (mol/L); just state the number.

• O=C(C[n+]1cn(C(c2ccccc2)c2cc3ccccc3o2)c2ccccc21)c1ccc(Br)cc1 (stereo not given) = 5.57
• CCc1n(C(c2ccccc2)c2cc3ccccc3o2)cc[n+]1CC(=O)c1ccccc1 (stereo not given) = 5.58
• O=C(C[n+]1ccn(C(c2ccccc2)c2cc3ccccc3o2)c1)c1ccc(Br)cc1 (stereo not given) = 5.58

Tested on HL-60, the item Cc1n(C(c2ccccc2)c2cc3ccccc3o2)cc[n+]1CC(=O)c1ccc(F)cc1 (stereo not given) showed pIC50 equal to 5.33

Tested on HL-60, the item O=C(C[n+]1cn(C(c2ccccc2)c2cc3ccccc3o2)c2ccccc21)c1ccc(F)cc1 (stereo not given) showed pIC50 equal to 5.68

Tested on HL-60, the item O=C(C[n+]1cn(C(c2ccccc2)c2cc3ccccc3o2)c2ccccc21)c1ccc2ccccc2c1.[Br-] (stereo not given) showed pIC50 equal to 5.95

Tested on HL-60, the item CCCC[n+]1cn(C(c2ccccc2)c2cc3ccccc3o2)c2ccccc21 (stereo not given) showed pIC50 equal to 5.54

Tested on HL-60, the item Cc1n(C(c2ccccc2)c2cc3ccccc3o2)cc[n+]1CC(=O)c1ccc(Br)cc1 (stereo not given) showed pIC50 equal to 5.48
